Test: Lipophilicity, logD of the compound at pH 7.4
Format: physicochemical
Details: buffer
Measurement name: logD

# example entries with known answers
Compound: O=C(NOCCO)c1ncc2cncn2c1Nc1ccc(I)cc1F
Measurement name: logD
Numeric readout: 2.1
//
Compound: O=C(NOCCO)c1ccc2cncn2c1Nc1ccc(I)cc1F [GDC-0623]
Measurement name: logD
Numeric readout: 2.1
//
Compound: O=C(NOCCO)c1oc2ccncc2c1Nc1ccc(I)cc1F
Measurement name: logD
Numeric readout: 3.1

P = O=C(NOCCO)c1ccn2cncc2c1Nc1ccc(I)cc1F
Q = O=C(NOCCO)c1ccc2cnsc2c1Nc1ccc(I)cc1F
Kindly identify which of P and Q has the larger recorded logD value. Could you answer with the label of the item you picked?
Q
(Q: 3.1, P: 2.1)

----------
Assay: Hepatic clearance in human liver microsomes
Type: ADME
Measurement name: CLhep predicted (mL/min/kg)

# example entries with known answers
Smiles input: O=C(NOCCO)c1ncc2cncn2c1Nc1ccc(I)cc1F
CLhep predicted / mL/min/kg: 11
--
Smiles input: C[C@H](CO)CONC(=O)c1ncc2cncn2c1Nc1ccc(I)cc1F
CLhep predicted / mL/min/kg: 8
--
Smiles input: O=C(NOCCO)c1ccc2cncn2c1Nc1ccc(I)cc1F
CLhep predicted / mL/min/kg: 14

a = C[C@H](O)CONC(=O)c1ncc2cncn2c1Nc1ccc(I)cc1F
b = O=C(NOCCO)c1ccn2cncc2c1Nc1ccc(I)cc1F
When the recorded CLhep predicted values are compared, which is smaller: that of a or that of b ? Could you answer with the label of the item you picked?
a

----------
Target: Cytochrome P450 2C19 (Homo sapiens)
Sequence (P33261 whole entry): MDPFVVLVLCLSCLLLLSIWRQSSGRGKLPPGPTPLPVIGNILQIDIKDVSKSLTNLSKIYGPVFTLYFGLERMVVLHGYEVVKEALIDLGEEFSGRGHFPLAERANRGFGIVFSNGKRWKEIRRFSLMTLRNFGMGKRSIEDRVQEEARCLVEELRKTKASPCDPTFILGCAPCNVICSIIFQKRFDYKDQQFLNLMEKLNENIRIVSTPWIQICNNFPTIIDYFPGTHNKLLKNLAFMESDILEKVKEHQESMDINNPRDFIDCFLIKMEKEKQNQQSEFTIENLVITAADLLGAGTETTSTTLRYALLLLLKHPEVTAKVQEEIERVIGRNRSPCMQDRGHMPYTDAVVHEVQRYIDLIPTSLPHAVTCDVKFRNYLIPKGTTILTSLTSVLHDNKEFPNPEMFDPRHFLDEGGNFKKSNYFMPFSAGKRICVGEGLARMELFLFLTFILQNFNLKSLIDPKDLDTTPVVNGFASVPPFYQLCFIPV
Measurement name: IC50 (µM)
Give a bare numeral; the unit µM is implied.

// query IC50 value for entry O=C(NOCCO)c1ccn2cncc2c1Nc1ccc(I)cc1F
16

----------
Assay: Permeability from apical to basolateral side in MDCK cells
Type: ADME, cell-based, Canis lupus familiaris
Conditions: dog, read-out: permeability
Measurement name: Papp A→B (×10⁻⁶ cm/s)

Smiles input: O=C(NOCCO)c1ncc2cncn2c1Nc1ccc(I)cc1F
Numeric readout: 19.7

A = O=C(NOCCO)c1ccn2cncc2c1Nc1ccc(I)cc1F
B = O=C(NOCCO)c1ccc2cncn2c1Nc1ccc(I)cc1F
Kindly identify which of A and B has the larger recorded Papp A→B value. Could you answer with the label of the item you picked?
A
(A: 20.4 ×10⁻⁶ cm/s, B: 6.2 ×10⁻⁶ cm/s)

----------
The compounds listed here are annotated with their pIC50.
Target: Cytochrome P450 3A4 (Homo sapiens, UniProt P08684)
Sequence (P08684 whole entry): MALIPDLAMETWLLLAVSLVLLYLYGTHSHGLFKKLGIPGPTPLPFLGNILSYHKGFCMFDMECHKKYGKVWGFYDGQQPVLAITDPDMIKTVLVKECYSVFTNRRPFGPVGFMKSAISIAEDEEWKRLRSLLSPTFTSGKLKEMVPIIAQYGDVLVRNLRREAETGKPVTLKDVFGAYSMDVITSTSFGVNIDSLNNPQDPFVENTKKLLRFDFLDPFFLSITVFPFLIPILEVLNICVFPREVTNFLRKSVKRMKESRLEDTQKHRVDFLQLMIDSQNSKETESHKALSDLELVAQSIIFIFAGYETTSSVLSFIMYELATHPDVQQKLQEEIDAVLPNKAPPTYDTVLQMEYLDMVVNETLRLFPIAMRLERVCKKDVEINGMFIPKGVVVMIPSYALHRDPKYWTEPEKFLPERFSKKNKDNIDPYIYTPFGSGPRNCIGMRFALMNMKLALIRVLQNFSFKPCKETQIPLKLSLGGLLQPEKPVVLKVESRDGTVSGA
Assay: Inhibition of CYP3A4 (unknown origin) using testosterone substrate
Format: ADME
pIC50: −log10 of the molar value.

# example entries with known answers
Compound: O=C(NOCCO)c1ccn2cncc2c1Nc1ccc(I)cc1F
pIC50: < 5.00
--
Compound: O=C(NOCCO)c1oc2ccncc2c1Nc1ccc(I)cc1F
pIC50: < 5.00
--
Compound: O=C(NOCCO)c1ccc2cncn2c1Nc1ccc(I)cc1F [GDC-0623]
pIC50: < 5.00

Please examine the following record next.
// query pIC50 value for entry O=C(NOCCO)c1ccc2cnsc2c1Nc1ccc(I)cc1F
5.05

----------
Experiment: Half life in rat at 1 mg/kg, iv or 5 mg/kg, po
Type: ADME, organism-based
Details: in vivo
Measurement name: half-life (h)

Smiles input: O=C(NOCCO)c1ccn2cncc2c1Nc1ccc(I)cc1F
half-life, h: 0.9

A = O=C(NOCCO)c1ccc2cncn2c1Nc1ccc(I)cc1F
B = O=C(NOCCO)c1cc(F)c2cncn2c1Nc1ccc(I)cc1F
When the recorded half-life values are compared, which is smaller: that of A or that of B ? Could you answer with the label of the item you picked?
A

The reported measurements were obtained from ChEMBL document CHEMBL3351244.
